// data source = the RNAGym collection of RNA variant scans (doi:10.1073/pnas.2313332121)

B1: TPR t1 (parent)
chain: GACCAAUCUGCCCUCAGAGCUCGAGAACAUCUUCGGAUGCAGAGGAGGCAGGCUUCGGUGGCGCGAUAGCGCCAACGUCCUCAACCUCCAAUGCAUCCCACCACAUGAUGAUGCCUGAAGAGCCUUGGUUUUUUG

Variants of: B1
Assay: polymerase ribozyme fitness, log enrichment relative to wild type (log ratio); higher = more active; in vitro selection for triplet polymerase activity
OBSERVATION_TYPE: polymerase ribozyme fitness (log ratio)
Enter the number alone.

QUERY: Given C115U A118U U130G , state its recorded polymerase ribozyme fitness (log ratio).
RESULT: -1.69

QUERY: Given C3A G47A C72A A100C , state its recorded polymerase ribozyme fitness (log ratio).
RESULT: -2.89

QUERY: Given C20G C53A G57U A91C A95G U109G , state its recorded polymerase ribozyme fitness (log ratio).
RESULT: -3.11

QUERY: Given G47U A50U U59C C73A U78A U133A , state its recorded polymerase ribozyme fitness (log ratio).
RESULT: -2.31

QUERY: Given G45U G52A C62U U96G , state its recorded polymerase ribozyme fitness (log ratio).
RESULT: -2.4

QUERY: Given G71C G113U , state its recorded polymerase ribozyme fitness (log ratio).
RESULT: -2.72

QUERY: Given A24G U109C , state its recorded polymerase ribozyme fitness (log ratio).
RESULT: -5.04

QUERY: Given C72G G113C C114U C115G C124U , state its recorded polymerase ribozyme fitness (log ratio).
RESULT: -4.29

QUERY: Given G39U C88U A121G , state its recorded polymerase ribozyme fitness (log ratio).
RESULT: 0.804

QUERY: Given A46G G47C U96A , state its recorded polymerase ribozyme fitness (log ratio).
RESULT: -3.35

QUERY: Given U9C C49A C123U , state its recorded polymerase ribozyme fitness (log ratio).
RESULT: 1.45

QUERY: Given C8U C13U A37C C70U A119G , state its recorded polymerase ribozyme fitness (log ratio).
RESULT: -0.292

QUERY: Given C15U A16U G58C C72U C80A A111C , state its recorded polymerase ribozyme fitness (log ratio).
RESULT: -6.92

QUERY: Given G39U C62U G117U , state its recorded polymerase ribozyme fitness (log ratio).
RESULT: -3.18

QUERY: Given G36A A46C G61A A90C A118C , state its recorded polymerase ribozyme fitness (log ratio).
RESULT: -6.53

QUERY: Given C53A G69C G77U U96A G117A , state its recorded polymerase ribozyme fitness (log ratio).
RESULT: -5.87

QUERY: Given U21A U59C G69U C123A G128C , state its recorded polymerase ribozyme fitness (log ratio).
RESULT: -3.33

QUERY: Given G47A C72A C86A U96G G117U , state its recorded polymerase ribozyme fitness (log ratio).
RESULT: -4.69

QUERY: Given U21A A119U , state its recorded polymerase ribozyme fitness (log ratio).
RESULT: -0.295

QUERY: Given C12G C34A C56U , state its recorded polymerase ribozyme fitness (log ratio).
RESULT: -2.05

QUERY: Given U7G A83U , state its recorded polymerase ribozyme fitness (log ratio).
RESULT: -0.221
